I'd be grateful if you could share measured TGI for these entries.
Tested on: SK-MEL-28 melanoma
Experiment: NCI tumour cell line growth inhibition, 48 h
Field: numeric (µM). Do not append units.

[ask] Param readout = TGI; param system = SK-MEL-28 melanoma; param query = COc1ccc(-c2cc(-c3ccccc3)n(C3OC(COC(C)=O)C(OC(C)=O)C(OC(C)=O)C3OC(C)=O)c(=S)c2C#N)cc1 (stereo not given) ; response: value
[reply] 25.1

[ask] Now give it for CC1=C(C(=O)Nc2cccc(C(F)(F)F)c2)C(c2ccc(O)cc2)C(C(=O)Nc2cccc(C(F)(F)F)c2)=C(C)N1 too.
[reply] 47.7

[ask] Proceed to CCN1CCC[C@H]1c1cc(O)c2c(c1OC)C[C@H]1C[C@H]3[C@H](N)C(=O)C(C(N)=O)=C(O)[C@@]3(O)C(=O)C1=C2O
[reply] 1.26

* * *

System: SN12C renal
Test: NCI tumour cell line growth inhibition, 48 h
For each entry below, report its TGI value.

[ask] I am curious: what TGI value has been reported for COC(=O)CCC(NC(=S)N/N=C(\C)c1ccccn1)C(=O)OC (centres undefined) ?
[reply] > 100 µM

[ask] Thanks! And CSC1=Nc2c(c(C)c(-c3ccccc3)n2COC(CO)CO)C2=NC(=O)C(C)N12 (centres undefined) ?
[reply] > 100 µM

[ask] // query: C=CCOC(=O)CCCCCCCCCCCCCCCOC(=O)C1=C(CCC[C@@H](C)O[Si](C)(C)C(C)(C)C)N=C(N)N2[C@H](CC3(CC/C=C\[C@H](CC)O[Si](C(C)C)(C(C)C)C(C)C)OCCO3)CC[C@@H]12
[reply] > 100 µM

[ask] Note, next up: CC(=O)NNc1nc(C)c(C(=O)NNC(=O)C(=O)Nc2ccc(C)c(C)c2)s1
[reply] > 100 µM

[ask] // query: CCOc1ccccc1NC(=O)C(=O)CC(=O)C1=C(C)Nc2ccccc2S1
[reply] > 100 µM

[ask] Subsequent entry: Cc1ccc(/C=C(\C#N)n2nnc3cc(Cl)c(Cl)cc32)cc1
[reply] 13.1 µM

[ask] For O=c1[nH]c(=S)[nH]c2c1sc(=S)n2-c1ccccc1 then?
[reply] > 100 µM

[ask] Lookup CCCOc1ccc(/C(Cl)=C(\C=O)c2ccc(OC)c(OC)c2)cc1OCCC
[reply] > 100 µM

[ask] Cool, now COC(=O)C(C(=O)C(=O)Nc1cccc(O)c1)c1nc2ccc(Cl)cc2[nH]c1=O (centres undefined)
[reply] > 100 µM

[ask] Next entry: O=C1Cc2cc(CCn3ccnc3)c(Cl)cc2N1
[reply] > 100 µM

[ask] Please give the result for CCCCc1ccc(Nc2nc3c(ncn3C3OC(COC(C)=O)C(OC(C)=O)C3OC(C)=O)c(=O)[nH]2)cc1 (centres undefined) too.
[reply] 42.3 µM

[ask] Input COC(=O)/C(C#N)=C\N1CCN(C(=O)c2ccco2)C1=S
[reply] 14.4 µM

[ask] Same question, COc1cc2c(cc1OC)C(CCc1ccc(Cl)cc1)N(C)CC2 (centres undefined) this time
[reply] > 100 µM

[ask] Let us now turn to CCC(=O)C1=C(OC(C)=O)C2Cc3c(n(C)c4ccccc34)C(C1)N2C (centres undefined)
[reply] 61.5 µM

[ask] Subsequent entry: Nc1ccc2c(c1)C(=O)c1ccc(F)cc1-2
[reply] > 100 µM

[ask] Item: CCCc1cc(=O)oc2c(C(=O)CC(C)C)c(O)c(CC=C(C)C)c(O)c12
[reply] > 50 µM

[ask] And then CC(C)(O)[C@@H]1CCC(C)([C@H]2[C@@H](O)CC3(C)C4CC(OC5OC(CO)C(O)C(O)C5O)C5C(C)(C)[C@@H](OC6OCC(O)C(O)C6O)CC[C@@]56C[C@@]46CC[C@]23C)O1 (some centres undefined) , what is it?
[reply] > 100 µM

[ask] Also need C=C1CC(OC(C)=O)/C=C(/C)CCC(C(C)(C)O)CC1O (centres undefined) , thanks.
[reply] > 100 µM

[ask] For OC(c1cc(C(O)(C(F)(F)F)C(F)(F)F)ncn1)(C(F)(F)F)C(F)(F)F then?
[reply] > 10 µM

* * *

Tested on: KM12 colon
Assay: NCI tumour cell line growth inhibition, 48 h
Task for the reader: assign each of the following compounds its reported TGI.

[ask] Quick one: TGI for c1ccc(Cc2cccc3cc(-c4ccc(-c5ccccc5)cc4)[nH]c23)cc1 ?
[reply] > 100 µM

[ask] Entry to check: CCCS(=O)(=O)O
[reply] > 100 µM

[ask] Cool, now CCCCCCCCCCCCCCCCOC(=O)C(C(=O)OCCCCCCCCCCCCCCCC)[N+](C)(C)CCOC(C)=O
[reply] 33.8 µM

[ask] CCOC(=O)c1ccc(N=C2SC(=S)N(c3ccc(F)cc3)C2=Nc2ccc(C(=O)OCC)cc2)cc1 ?
[reply] > 71.7 µM

[ask] // same read-out, input: COc1cc2cc3c4c(cc(OC)c(OC)c4c2cc1OC)CCN3C(=O)CCCC(=O)O
[reply] > 100 µM

[ask] Would you mind doing C=C1CC[C@@H]2C(C)(C)[C@@H](O)CC[C@@]2(C)[C@@H]1COc1ccc2ccc(=O)oc2c1 as well?
[reply] 29.1 µM

[ask] Consider next the compound CCCc1cc(=O)oc2c(C(=O)CC(C)C)c(O)c(CC=C(C)C)c(O)c12 in the same way.
[reply] > 50 µM

[ask] Also Cc1cccc2c1Oc1cc(Cl)ccc1C2NC(=O)CCN1CCCCC1 (stereo not given) , if possible.
[reply] 30.8 µM

[ask] Ok, now COc1ccc(/C=C2/C(=O)N(C(=O)c3ccccc3O)N=C2C)cc1OC
[reply] > 100 µM

[ask] Then this compound: C#CCNC(=O)CCC(N)C(=O)O (stereo not given)
[reply] > 100 µM

* * *

Observed GI50 values for SNB-19 CNS are listed in what follows.

[ask] Using the record for COc1cc2c(cc1OCCCCNC(=O)c1cc3ccccc3[nH]1)N=CC1CCCN1C2=O (stereo not given) , report its GI50.
[reply] 20.2 µM

[ask] Try O=C(CCCn1c2c(sc3ncccc32)c(=O)n2nnc(-c3ccccc3)c12)NCCc1cnc[nH]1 next.
[reply] 10.8 µM

[ask] Subsequent entry: COc1ccc(Nc2c3ccccc3nc3c2c2ccccc2n3C)cc1
[reply] > 100 µM

[ask] Can you check COC(=O)/C(C#N)=C\N1CCN(C(=O)c2ccco2)C1=S next?
[reply] 54.9 µM

[ask] Then Cc1cccc(CN(C)c2ccc(CO)c(Cl)c2)c1 ?
[reply] 28.4 µM

* * *

Test system: OVCAR-3 ovarian
Assay: NCI tumour cell line growth inhibition, 48 h
Hi there, I'd appreciate the recorded TGI for every entry that follows.

[ask] So what does the record say about TGI for O=C1Cc2cc(CCn3ccnc3)c(Cl)cc2N1 ?
[reply] 78.1 µM

[ask] Try CC1C2Cc3ccc(O)cc3C1(C)CCN2C (configuration not stated) next.
[reply] > 100 µM

[ask] O=C(CC(=O)N1N=C(n2ccc3ccccc32)CC1c1ccccc1)Nc1cccc(Cl)c1 (configuration not stated) , same question.
[reply] > 100 µM

[ask] Repeat for the following compound: Cn1c(-c2ccccc2)cc(-c2ccc3c(c2)OCO3)c1-c1cccs1
[reply] > 100 µM

[ask] Query O=c1oc2ncccc2n1Cc1ccc([N+](=O)[O-])cc1 next
[reply] > 100 µM

[ask] Query O=C1/C(=C/c2ccc(O)cc2)NC(=S)N1CN1CCCCC1 next
[reply] > 100 µM

[ask] Can you handle COc1cc(/C=C2\C(=O)N(c3cccc(Cl)c3)C(c3ccccc3)S2(=O)=O)cc(OC)c1OC (configuration not stated) next?
[reply] > 100 µM

[ask] Same thing, different compound: OC1CN(OC/C=C/c2ccccc2)CC(O)C1O (configuration not stated)
[reply] > 100 µM

[ask] What do you get for Cc1c2c(c(C)c3c[n+](C)ccc13)Oc1ccccc1O2 ?
[reply] 17.5 µM

[ask] Query CCN(CC)CCN1c2ccccc2Sc2ccc3ccccc3c21 next
[reply] 24.6 µM

[ask] And for Cc1ccc(SSCCCS(=O)O)cc1 ?
[reply] > 100 µM

[ask] Same for COC(=O)C12CCC(C(=O)OC)(Cc3c(c4ccccc4n3S(=O)(=O)c3ccccc3)C1)C2=O (configuration not stated)
[reply] > 100 µM

[ask] Next up: c1cncc(CNc2ccccc2-c2nnc(Nc3ccc4c(c3)OCO4)o2)c1
[reply] 0.0866 µM

[ask] How about CCOC(=O)C1=C(Nc2ccccc2)OC/C1=N\NC(=O)Cc1ccccc1 ?
[reply] > 50 µM

[ask] What about this compound? CCOc1ccccc1NC(=O)C(=O)CC(=O)C1=C(C)Nc2ccccc2S1
[reply] > 100 µM

[ask] Quick one: COc1cc2c(cc1OC)C(CCc1ccc(Cl)cc1)N(C)CC2 (configuration not stated)
[reply] > 100 µM

[ask] Also check Nc1nc(-c2ccccc2)c(-c2ccccc2)c(-c2nc(N)nc(-c3ccccc3)c2-c2ccccc2)n1
[reply] > 100 µM

[ask] Note, next up: N#CS/C(C(Cl)=C(Cl)Cl)=C(/Cl)[N+](=O)[O-]
[reply] 3.1 µM

[ask] Could you do the same for CN(C)CC(C(=O)c1ccccc1)c1ccccc1 (configuration not stated) , please?
[reply] 2.5 µM

[ask] Then NS(=O)(=O)c1ccc(NNC(=O)c2cccc3c(=O)c4ccccc4[nH]c23)cc1 ?
[reply] > 100 µM

[ask] Repeat with CCCS(=O)(=O)O
[reply] > 100 µM

[ask] Another: CS(C)(=O)=N/C=C\C(=O)C(Cl)(Cl)Cl
[reply] > 100 µM

[ask] Queued: COc1ccc(/C=C/c2cc(OC)c(O[Si](C)(C)C(C)(C)C)c(OC)c2)cc1
[reply] > 100 µM

[ask] Same for Cc1cccc(CN(C)c2ccc(CO)c(Cl)c2)c1
[reply] 17 µM

[ask] Moving on to CC(C)c1cc(C(C)C)c(S(=O)(=O)NN)c(C(C)C)c1
[reply] > 100 µM

[ask] Would you mind doing O=C(CCCn1c2c(sc3ncccc32)c(=O)n2nnc(-c3ccccc3)c12)NCCc1cnc[nH]1 as well?
[reply] 23.6 µM

[ask] What about this compound? COC1/C=C/C(C)C(OC)CC(O)/C=C/C(C)C(C(C)C(OC)C(C)CCC(=O)C(C)C(C/C=C/N(C)C=O)OC)OC(=O)/C=C/C=C(\C)CC(OC)C(OC)C2=CC(=O)O[C@@H](C(C)C(OC)C1)[C@H]2O (some centres not stated)
[reply] 0.0489 µM

[ask] What do we get for COc1cc2cc3c4c(cc(OC)c(OC)c4c2cc1OC)CCN3C(=O)CCCC(=O)O ?
[reply] > 100 µM

[ask] Please answer likewise for N#Cc1ccc(Oc2nccc(-c3c(-c4ccc(F)cc4)ncn3C3CCNCC3)n2)cc1
[reply] > 25 µM

[ask] And for C=C1C(=O)OC2/C=C(\C)CC/C=C(/C)CC(OC(=O)/C(=C/CO)CO)C12 (configuration not stated) ?
[reply] > 100 µM

[ask] # repeat for CCOc1ccc(Cc2nccc3cc(OCC)c(OCC)cc23)cc1OCC
[reply] 23.6 µM

[ask] Let us now turn to Fc1ccc(-c2nc(-c3nc4ccc(Cl)cc4[nH]3)cc3c2[nH]c2ccccc23)cc1
[reply] 6.87 µM
